Molecular target: T1, ROR1 extracellular domain Fc-fusion, dimer (human, UniProt Q01973 30-406)
T1 construct: also called ROR1 dimer; hROR1 dimeric ECD-Fc fusion protein; not shown: Fc part
T1 sequence (Q01973 30-406): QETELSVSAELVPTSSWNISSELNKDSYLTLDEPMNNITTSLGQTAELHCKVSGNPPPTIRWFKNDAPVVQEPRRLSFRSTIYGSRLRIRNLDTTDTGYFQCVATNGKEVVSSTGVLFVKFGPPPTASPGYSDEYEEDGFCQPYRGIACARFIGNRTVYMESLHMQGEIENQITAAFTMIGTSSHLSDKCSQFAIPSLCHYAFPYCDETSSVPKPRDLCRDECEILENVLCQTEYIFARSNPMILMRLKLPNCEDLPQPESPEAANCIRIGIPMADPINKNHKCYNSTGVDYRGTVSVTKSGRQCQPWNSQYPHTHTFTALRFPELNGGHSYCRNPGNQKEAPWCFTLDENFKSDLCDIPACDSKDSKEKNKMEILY
Assay: SPR, immobilised ROR1 dimer, antibody injected, 1:1 model
assay_endpoint: kon (M⁻¹ s⁻¹)
Report only the number, with the unit M⁻¹ s⁻¹ understood.

Worked examples follow.
Antibody 601-147 (antibody, V domains shown) VH: QMQLVQSGAEVKKPGASVKVSCKASGYTFSRYYIHWVRQAPGQGLEWMGLINPGGGSTNYAQKFQGRVTMTRDTSTNTVYLELSSLRSDDTAVYYCARDYGTIDARRFDFWGQGTLVTVSS VL: QSALTQPPSASGTPGQRVTISCSGSSSNIGSNYVYWYQQLPGTAPKLLIYRNNQRPSGVPDRFSGSKSGTSASLAISGLRSEDEADYYCAAWDDSLSGYVFGTGTKVTVL: 680000
Antibody 601-37 (antibody, V domains shown) VH: EVQLVQSGAEVKKPGASVKVSCKASGYTFNNYGFSWVRQAPGQGLEWMGWISVYNGNTNYAQKLQGRVTMTTDTSTSTAYMELRSLRSDDTAVYYCARDYYSDSSGYWDDAFDIWGQGTMVTVSS VL: AIRMTQSPSSLSASVGDRVTITCQASQDISNYLNWYQQKPGKAPKLLIYAASSLQSGVPSRFSGSGSGTDFTLTISSLQPEDFATYYCQQSYSTPFTFGPGTKVDIK: 1e+06

Continue with the binder presented below.
Please report kon for the following binder: Antibody 601-103 (antibody, V domains shown) VH: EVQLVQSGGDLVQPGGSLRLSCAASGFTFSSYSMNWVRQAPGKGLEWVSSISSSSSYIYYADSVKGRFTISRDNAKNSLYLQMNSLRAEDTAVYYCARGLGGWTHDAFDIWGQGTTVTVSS VL: QSVLTQPASVSGSPGQSITISCTGTTSDVGGYNYVSWYQQHPGKAPKLMIYDVSKRPSGVSNRFSGSKSGNTASLTISGLQAEDEADYYCSSYTSSSTDVFGTGTKLTVL 170000
